tested on: G-CSF promoter; assay: G-CSF promoter/luciferase reporter assay (high-throughput screen I), G21 cells; conditions: transcriptional activators, Table 2; 6 h incubation
Kindly apply the following: Met if GCSF fold induction relative to solvent control is less than 4 fold, Not met in every other case.

In [3]: df
Out[3]:
                            smiles_notation    label
0                  Nc1nc2nc[nH]c2c(=S)[nH]1      Met
1  Nc1ncnc2c1nc(Br)n2[C@@H]1O[C@H](CO)[C@@H](O)[C@H]1O  Not met
2                    NCc1ccc(S(N)(=O)=O)cc1  Not met
3               Nc1ccc2c(c1)C(=O)c1ccccc1-2      Met
4  O=C1OC2(c3cc(I)c(O)c(I)c3Oc3c2cc(I)c(O)c3I)c2c(Cl)c(Cl)c(Cl)c(Cl)c21      Met
5                             CC(=O)n1ccnc1  Not met
6  CC1(C)O[C@@H]2C[C@H]3[C@@H]4CCC5=CC(=O)C=C[C@]5(C)[C@@]4(F)[C@@H](O)C[C@]3(C)[C@]2(C(=O)CO)O1      Met
7             COc1c(F)cc(Br)cc1[N+](=O)[O-]  Not met
8           Clc1ccc(Sc2cc(Cl)c(Cl)cc2Cl)cc1      Met

----------
tested on: MMTV promoter; assay: MMTV promoter/luciferase reporter assay (high-throughput screen I, control for specificity), M10 cells; type: cell-based, mouse; settings: transcriptional activators, Table 2; original high-throughput assay; 6 h incubation
Quantity kind: MMTV fold induction relative to solvent control

                                   compound  meas_value
0  O=C(N[C@H](CO)[C@H](O)c1ccc([N+](=O)[O-])cc1)C(Cl)Cl   7.32 fold
1       O=c1ccc2[n+]([O-])c3ccc(O)cc3oc-2c1   0.71 fold
2      O=C(O)c1ccc2c3c(ncnc13)-c1ccccc1C2=O   0.59 fold
3  OCC1CC2C3CC(CO)C(C3)C2C1 (stereo not shown)   0.89 fold
4             CC(CCl)CBr (stereo not shown)   0.89 fold
5                     Nc1c2ccccc2nc2ccccc12   0.82 fold
6               CCOC(=O)N1C(=O)c2ccccc2C1=O   0.62 fold
7  O=C1OC2(c3cc(I)c(O)c(I)c3Oc3c2cc(I)c(O)c3I)c2c(Cl)c(Cl)c(Cl)c(Cl)c21   1.21 fold
8  CC(C=O)=CC=CC(C)=CC=CC=C(C)C=CC=C(C)C=CC1=C(C)CCCC1(C)C   2.76 fold
9  CC(=O)N(C)c1ccc(N)cc1 [Chemical #1374, 4'-Amino-N-methyl-acetanilide]   1.05 fold

----------
system: hGH promoter; assay: hGH promoter/luciferase reporter assay (high-throughput screen I), 532 cells; type: cell-based, rat; settings: transcriptional activators, Table 2; 6 h incubation
Quantity kind: hGH fold induction relative to solvent control (fold)

                                   compound  meas_value
0                      CC(C)(C)c1ccc(Br)cc1        0.74
1  CC1(C)O[C@@H]2C[C@H]3[C@@H]4CCC5=CC(=O)C=C[C@]5(C)[C@@]4(F)[C@@H](O)C[C@]3(C)[C@]2(C(=O)CO)O1        1.28
2              CCOC(=O)c1c[nH]c(=S)[nH]c1=O       17.77
3             CC(CCl)CBr (stereo not drawn)        0.61
4                     Nc1c2ccccc2nc2ccccc12        0.54
5                              ClCCN1CCCCC1        0.90
6             O=C(O)c1[nH]c(=O)[nH]c(=O)c1I        0.86
7  CC(=O)OCC(=O)[C@@]1(O)CC[C@H]2[C@@H]3CCC4=CC(=O)C=C[C@]4(C)[C@H]3[C@@H](O)C[C@@]21C        1.30
8  CN(C)c1ccc(C(=C2C=CC(=[N+](C)C)C=C2)c2ccc([N+](C)(C)C)cc2)cc1        0.52
